This section presents compounds with their documented normalized growth values.
assay: chemical genetic growth profiling, strain panel (AID 1159580);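 further: tested at 20 µM; growth read once vehicle control cultures reached saturation at 30 °C; 1 = growth at the plate median or of vehicle wells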; details: S. cerevisiae deletion strains, growth OD, locus YOR061W, strain CKA2, stronger effect = lower value
Screen size: about 5,500 compounds; about 2,000 (36%) were called active. Inconclusive results (about 18%) are left out. Some of the results follow.
Could you keep your reply to the number by itself?

compound	test_result
O=S(=O)(Nc1ccc(-n2nc(C(F)(F)F)cc2-c2cccs2)cc1)c1ccc(F)cc1	0.998
O=S(=O)(Nc1cc(-c2cccs2)nn1-c1ccc(I)cc1)c1cccc(F)c1	0.951
C[C@]12C=CC(=O)C=C1CCC1C2C(=O)C[C@@]2(C)C1CC[C@]2(O)C(=O)CO (stereo partly specified)	0.963

Req: I would be grateful if you could share the reported normalized growth for Nc1ncnc2nc[nH]c12 .
Resp: 0.995

Req: c1coc(CNc2ncnc3nc[nH]c23)c1 , same question.
Resp: 1

Req: COc1ccc(-c2cc(NS(=O)(=O)c3cccc(F)c3)n(-c3ccc(Cl)c(Cl)c3)n2)cc1 , same question.
Resp: 0.87

###

assay: chemical genetic growth profiling, strain panel (AID 1159580);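 further: tested at 20 µM; growth read once vehicle control cultures reached saturation at 30 °C; 1 = growth at the plate median or of vehicle wells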; settings: S. cerevisiae deletion strains, growth OD, locus YNL322C, strain KRE1 (second series)
Screen size: about 5,500 compounds; about 2,000 (36%) were called active. Roughly 18% stayed inconclusive and do not appear here. No stated cut-off is given here; in the data, active means normalized growth mostly below about 0.91 (no sharp cut-off); inconclusive means no clear call, values can overlap the other calls; inactive means mostly above about 0.92. The list shows a part of the results.
Outcomes you can answer with include only these: T = active, F = inactive

molecule	assigned_label
COc1cc(OC)c(C(C)=O)c(O)c1C	F
Cn1c([N+](=O)[O-])cnc1COC(N)=O	F
CC(C)=CCC1=C(O)c2ccccc2C(=O)C1=O	T
FC(F)(F)COCC(F)(F)F	F
COc1c(O)cc(O)cc1O	F

Req: Recorded test call requested for Cn1cnc([N+](=O)[O-])c1Sc1ncnc2nc[nH]c12
Resp: F

Req: C[C@H]1C(=O)O[C@@H]2CCN3CC=C(COC(=O)[C@](C)(O)[C@]1(C)O)[C@H]23 , same question.
Resp: F

Req: COc1cc(O)c(C(C)=O)c(OC)c1 , same question.
Resp: F

Req: O=C(O)c1cccc(O)c1O , same question.
Resp: F

###

This section presents molecules with their documented normalized growth values.
test: chemical genetic growth profiling, strain panel (AID 1159580);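 further: tested at 20 µM; growth read once vehicle control cultures reached saturation at 30 °C; 1 = growth at the plate median or of vehicle wells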; conditions: S. cerevisiae deletion strains, growth OD, locus YDR159W, strain sac3, stronger effect = lower value
The campaign covered roughly 5,500 compounds. About 2,000 (36%) were called active. Not shown: some 18% with an inconclusive outcome. The list shows a part of the results.
Could you keep your reply to the number by itself?

Worked cases, normalized growth given:
molecule	normalized growth
CCCCC/C=C\C/C=C\C/C=C\C/C=C\CCCC(=O)O	0.926
O=C(CCCN1CC=C(n2c(=O)[nH]c3ccccc32)CC1)c1ccc(F)cc1	0.989
COc1cc(O)c(C(=O)O)c(O)c1	1.01
COc1cc(OC)c(C(C)=O)c(O)c1C	0.847
CCCC(=O)Nc1ncnc2c1ncn2C1O[C@@H]2COP(=O)(O)O[C@H]2[C@H]1OC(=O)CCC (stereo partly specified)	1.01

Req: I would be grateful if you could share the reported normalized growth for CC(C)=CCOc1c2occc2cc2ccc(=O)oc12 .
Resp: 0.944

Req: CC(C)=CCOc1cc2oc(=O)ccc2cc1O , same question.
Resp: 0.881

Numbers sourced from PubChem BioAssay AID1159580.
